- studyTarget: D(3) dopamine receptor (Homo sapiens, UniProt P35462)
- Sequence (P35462 whole entry): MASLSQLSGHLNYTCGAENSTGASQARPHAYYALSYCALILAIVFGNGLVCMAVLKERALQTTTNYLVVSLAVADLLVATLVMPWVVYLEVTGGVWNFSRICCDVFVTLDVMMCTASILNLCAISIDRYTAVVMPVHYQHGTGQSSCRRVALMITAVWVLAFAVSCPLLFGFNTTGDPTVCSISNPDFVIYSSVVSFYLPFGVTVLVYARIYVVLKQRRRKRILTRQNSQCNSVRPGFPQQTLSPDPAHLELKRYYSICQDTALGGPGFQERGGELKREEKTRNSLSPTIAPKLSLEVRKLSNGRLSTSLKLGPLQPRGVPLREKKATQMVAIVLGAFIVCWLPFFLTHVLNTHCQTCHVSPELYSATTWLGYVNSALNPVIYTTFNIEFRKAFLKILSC
- experimentalDetails: DRUGMATRIX: Dopamine D3 radioligand binding (ligand: [3H] Spiperone)
- Format: cell membranes, CHO, Membrane
- measurementContext: read-out: Ki
assayReadout: Ki (nM)
Provide only the numeric value, understood in nM.

The reported value for "CC[C@H](C)[C@@H](CO[C@@H](Cc1ccccc1)C(=O)N[C@@H](CCS(C)(=O)=O)C(=O)OC(C)C)NC[C@@H](N)CS" in terms of Ki is 9.63

The reported value for CCN(CC)CCNC(=O)c1cc(Cl)c(N)cc1OC [METOCLOPRAMIDE] in terms of Ki is 68

The reported value for "CCN(CC)C(=S)SSC(=S)N(CC)CC" in terms of Ki is 368

The reported value for CC1(COc2ccc(CC3SC(=O)NC3=O)cc2)CCCCC1 (centres undefined) in terms of Ki is 9070
